Entry source: paper PMC5613298

test: steady-state absorption and emission spectroscopy, free in solution; assay type: physicochemical; conditions: neutral water
MEASURED_METRIC: λabs (nm)
Return type: number; implicit unit nm.

Returns the measured λabs for the input molecule. Input: N[C@@H](Cc1n[nH]c2ncccc12)C(=O)O [(2,7-aza)Trp, 2,7-diazatryptophan]
300

Next:
Returns the measured λabs for the input molecule. Input: c1cnc2[nH]ncc2c1 [2,7-diazaindole]
295

Returns the measured λabs for the input molecule. Input: N[C@@H](Cc1c[nH]c2ncccc12)C(=O)O [(7-aza)Trp, 7-azatryptophan]
289

----------
λem, normal / N(1)-H emission values by entry
test: steady-state absorption and emission spectroscopy, free in solution; format: physicochemical; settings: neutral water (peptides: neutral Tris buffer)
Return type: number; implicit unit nm.

Returns the measured λem, normal / N(1)-H emission for the input compound. Input: N[C@@H](Cc1n[nH]c2ncccc12)C(=O)O
340

Returns the measured λem, normal / N(1)-H emission for the input compound. Input: c1cnc2[nH]ncc2c1
335

----------
test: steady-state absorption and emission spectroscopy, free in solution; type: physicochemical; conditions: neutral water
Starred links: 1 amine or outer side, 2 acyl side, 3 side chain; linkers in the order of their positions; H or OH if unused. Non-standard residues stand in square brackets, D forms with d. Residues, ends and D or L forms follow the SMILES beside them. Trp(7-aza) = N[C@@H](Cc1c[nH]c2ncccc12)C(=O)O; X1 = O=C([C@H](Cc1n[nH]c2ncccc12)N[*:1])[*:2]
λabs values by entry
Return type: number; implicit unit nm.

Worked set:
Returns the measured λabs for the input compound. Input: CC(=O)N[C@@H](CC(C)C)C(=O)N[C@@H](CCCCN)C(=O)N[C@@H](Cc1c[nH]c2ncccc12)C(=O)N[C@@H](CCCCN)C(=O)N[C@@H](CCCCN)C(=O)N[C@@H](CC(C)C)C(=O)N[C@@H](CC(C)C)C(=O)N[C@@H](CCCCN)C(=O)N[C@@H](CC(C)C)C(=O)N[C@@H](CC(C)C)C(=O)N[C@@H](CCCCN)C(=O)N[C@@H](CCCCN)C(=O)N[C@@H](CC(C)C)C(=O)N[C@@H](CC(C)C)C(=O)N[C@@H](CCCCN)C(=O)N[C@@H](CC(C)C)C(=O)NCC(N)=O [(7-aza)Trp-Baa] (Ac-LK[Trp(7-aza)]KKLLKLLKKLLKLG-NH2)
300

Returns the measured λabs for the input compound. Input: c1cnc2[nH]ccc2c1 [7-azaindole]
288

Next:
Returns the measured λabs for the input compound. Input: CC(=O)N[C@@H](CC(C)C)C(=O)N[C@@H](CCCCN)C(=O)N[C@@H](Cc1n[nH]c2ncccc12)C(=O)N[C@@H](CCCCN)C(=O)N[C@@H](CCCCN)C(=O)N[C@@H](CC(C)C)C(=O)N[C@@H](CC(C)C)C(=O)N[C@@H](CCCCN)C(=O)N[C@@H](CC(C)C)C(=O)N[C@@H](CC(C)C)C(=O)N[C@@H](CCCCN)C(=O)N[C@@H](CCCCN)C(=O)N[C@@H](CC(C)C)C(=O)N[C@@H](CC(C)C)C(=O)N[C@@H](CCCCN)C(=O)N[C@@H](CC(C)C)C(=O)NCC(N)=O [(2,7-aza)Trp-Baa] (Ac-LK[X1]KKLLKLLKKLLKLG-NH2)
300

----------
assay: steady-state absorption and emission spectroscopy, free in solution; type: physicochemical; conditions: neutral water (peptides: neutral Tris buffer)
Starred links: 1 amine or outer side, 2 acyl side, 3 side chain; linkers in the order of their positions; H or OH if unused. Non-standard residues stand in square brackets, D forms with d. Residues, ends and D or L forms follow the SMILES beside them. Trp(7-aza) = N[C@@H](Cc1c[nH]c2ncccc12)C(=O)O; X1 = O=C([C@H](Cc1n[nH]c2ncccc12)N[*:1])[*:2]
MEASURED_METRIC: λem, normal / N(1)-H emission (nm)
Return type: number; implicit unit nm.

Worked set:
Returns the measured λem, normal / N(1)-H emission for the input molecule. Input: c1cnc2[nH]ccc2c1
386

Returns the measured λem, normal / N(1)-H emission for the input molecule. Input: N[C@@H](Cc1c[nH]c2ncccc12)C(=O)O
400

Returns the measured λem, normal / N(1)-H emission for the input molecule. Input: CC(=O)N[C@@H](CC(C)C)C(=O)N[C@@H](CCCCN)C(=O)N[C@@H](Cc1c[nH]c2ncccc12)C(=O)N[C@@H](CCCCN)C(=O)N[C@@H](CCCCN)C(=O)N[C@@H](CC(C)C)C(=O)N[C@@H](CC(C)C)C(=O)N[C@@H](CCCCN)C(=O)N[C@@H](CC(C)C)C(=O)N[C@@H](CC(C)C)C(=O)N[C@@H](CCCCN)C(=O)N[C@@H](CCCCN)C(=O)N[C@@H](CC(C)C)C(=O)N[C@@H](CC(C)C)C(=O)N[C@@H](CCCCN)C(=O)N[C@@H](CC(C)C)C(=O)NCC(N)=O [(7-aza)Trp-Baa] (Ac-LK[Trp(7-aza)]KKLLKLLKKLLKLG-NH2)
400

// switching to the query molecule
Returns the measured λem, normal / N(1)-H emission for the input molecule. Input: CC(=O)N[C@@H](CC(C)C)C(=O)N[C@@H](CCCCN)C(=O)N[C@@H](Cc1n[nH]c2ncccc12)C(=O)N[C@@H](CCCCN)C(=O)N[C@@H](CCCCN)C(=O)N[C@@H](CC(C)C)C(=O)N[C@@H](CC(C)C)C(=O)N[C@@H](CCCCN)C(=O)N[C@@H](CC(C)C)C(=O)N[C@@H](CC(C)C)C(=O)N[C@@H](CCCCN)C(=O)N[C@@H](CCCCN)C(=O)N[C@@H](CC(C)C)C(=O)N[C@@H](CC(C)C)C(=O)N[C@@H](CCCCN)C(=O)N[C@@H](CC(C)C)C(=O)NCC(N)=O [(2,7-aza)Trp-Baa] (Ac-LK[X1]KKLLKLLKKLLKLG-NH2)
340
